src = PubChem BioAssay

# Method notes: E. coli acrAB mutant growth effects, primary screen, E. coli filamentation inducers, strain DRC39, OD650, 48 h (AID 1179);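 also: screen aims at cell division blockers that make cells filament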
# Experimental parameters: E. coli DRC39 delta-acrAB growth, higher = more signal, called active from +8 up or from −8 down
Kindly note that classification relies on z-score with these boundaries: low = under -0.3, intermediate = from -0.3 up to 0.1, high = 0.1 and over

Entry `COc1cccc(-c2cccc(=O)o2)c1` belongs to which category?
intermediate

Entry `COCCOC(=O)N1C(=O)[C@@]2(c3ccccc31)[C@H](C(=O)N1CCc3cc(OC)c(OC)cc3C1)[C@H]1C(=O)O[C@H](c3ccccc3)[C@H](c3ccccc3)N1[C@@H]2c1ccc(OCCO)cc1` belongs to which category?
high

Entry `CN(C)CCCC[C@@H]1NC(=O)[C@H]2C[C@@H](C(=O)NCCCCCCN)[C@@H](c3ccc(O)cc3)N2C1=O` belongs to which category?
high

Entry `COCCOC(=O)N1C(=O)[C@@]2(c3cc(C#Cc4ccc(OC)cc4)ccc31)[C@H](c1ccc(OCCO)cc1)N1[C@H](c3ccccc3)[C@H](c3ccccc3)OC(=O)[C@H]1[C@@H]2C(=O)N1CCN(c2ncccn2)CC1` belongs to which category?
low

Entry C[C@H]1C2[C@H](Cc3ccccc3)NC(=O)[C@]23C(=O)N[C@H](Cc2ccccc2)C(=O)N2CCC[C@H]2C(=O)NC/C=C\C/C=C/C3[C@@H]2O[C@]12C (stereo partly specified) belongs to which category?
intermediate

Entry `COCCOC(=O)N1C(=O)[C@@]2(c3cc(C#CCCO)ccc31)[C@H](C(=O)N1CCCCCCC1)[C@H]1C(=O)O[C@H](c3ccccc3)[C@H](c3ccccc3)N1[C@@H]2c1ccc(OCCO)cc1` belongs to which category?
high

Entry `COCC(=C=CC[C@@H](O)c1cccc(OCCO)c1)C[C@@H](O)c1ccccn1` belongs to which category?
high

Entry `CO[C@H]1O[C@H](CO)[C@@H](OC(=O)Nc2ccc(Oc3ccccc3)cc2)[C@H](OC(=O)Nc2ccc3c(c2)OCO3)[C@H]1OC(=O)Nc1ccc2c(c1)OCO2` belongs to which category?
intermediate

Entry `COc1ccccc1CN1C(=O)c2ccccc2[C@@]2(Cc3ccccc3N(CC(C)C)C2=O)[C@@H]1c1ccc(CO)cc1` belongs to which category?
intermediate

Entry `CCc1cccc(NC(=O)O[C@H]2[C@H](OC(=O)Nc3ccccc3-c3ccccc3)[C@@H](OC(=O)Nc3ccccc3-c3ccccc3)[C@@H](OC)O[C@@H]2CO)c1` belongs to which category?
low

Entry `CC(C)C(=C=CC[C@H](O)c1ccc(OCCO)cc1)CCO` belongs to which category?
low

Entry `CCOC(=O)C1=CC[C@@H](c2ccccc2)N(S(=O)(=O)c2ccc(C)cc2)[C@H]1c1ccccc1C` belongs to which category?
high

Entry `O=C1O[C@H](c2ccccc2)[C@H](c2ccccc2)N2[C@H]1[C@@H](C(=O)N1CCCCCCC1)[C@]1(C(=O)Nc3ccc(C#CC4=CCCCC4)cc31)[C@H]2c1ccc(OCCO)cc1` belongs to which category?
high

Entry C=CCC(OC(C)=O)[C@@H]1[C@@H](N(Cc2ccc(-c3ccccc3)cc2)C(=O)Cc2ccc(OC)cc2)c2cc(OCCCO)ccc2N1C(=O)Cc1ccc2ccccc2c1 (stereo partly specified) belongs to which category?
low

Entry `COCCOC(=O)N1C(=O)[C@@]2(c3cc(C#CCCO)ccc31)[C@H](C(N)=O)[C@H]1C(=O)O[C@H](c3ccccc3)[C@H](c3ccccc3)N1[C@@H]2c1ccc(O)cc1` belongs to which category?
intermediate

Entry `[N-]=[N+]=Nc1ccccc1[C@H]1OC(c2ccc(OCCCO)cc2)=N[C@@]1(CCS(=O)(=O)c1ccccc1)C(N)=O` belongs to which category?
low

Entry `COc1ccc(CCNC(=O)[C@@]2(Sc3ccc(C)cc3)CC(=O)N(C3Cc4ccccc4C3)[C@@H]2c2ccc(CO)cc2I)cc1` belongs to which category?
low

Entry `C[N+](C)(C)CCCC[C@@H]1NC(=O)[C@H]2C[C@@H](C(=O)NCCCCCCNC(=O)CS)[C@@H](c3cccc(OCCO)c3)N2C1=O` belongs to which category?
high

Entry `COC(=O)[C@@]1(Cc2ccc(OC)cc2)[C@@H]2C(=CC(=O)[C@H]2CC(=O)C(=O)N2CCCC2)CN1C(=O)c1ccccc1` belongs to which category?
high

Entry `CCCC=C(CCC)[C@@H](NC(=O)c1cccs1)c1ccc(C(F)(F)F)cc1` belongs to which category?
intermediate

Entry `C=CCOC(=O)[C@H]1[C@@H]2C(=O)O[C@@H](c3ccccc3)[C@@H](c3ccccc3)N2[C@@H](c2ccc(OCCOC(=O)[C@@H]3C[C@@H]4C(=O)N[C@@H](CC(C)C)C(=O)N4[C@@H]3c3ccc(O)cc3)cc2)[C@]12C(=O)Nc1ccccc12` belongs to which category?
low

Entry CCCc1cc2c(n1Cc1cc(F)cc(F)c1)C(C)C1CN(C(=O)c3ccccc3)C(C)(C(=O)OC)C21 (stereo unspecified) belongs to which category?
intermediate

Entry `O=C1c2ccccc2[C@](Cc2ccccc2I)(C(=O)NCCN2CCOCC2)[C@H](c2ccc(CO)cc2)N1C1CCCCC1` belongs to which category?
high

Entry `COC(=O)C(CC#Cc1ccc2c(c1)[C@]1(C(=O)N2)[C@H](C(=O)Nc2nc3ccccc3s2)[C@H]2C(=O)O[C@H](c3ccccc3)[C@H](c3ccccc3)N2[C@@H]1c1ccccc1OCCO)C(=O)OC` belongs to which category?
intermediate

Entry COc1cc(NN2C(C(O)c3ccco3)C=CC3C(=O)N(c4ccccc4)C(=O)C32)cc(OC)c1OC (stereo unspecified) belongs to which category?
low
